Overview of reported combination Emax across a group of compounds:
system: Hs-578-T (Breast Carcinoma); test: combination Emax (second highest fraction inhibited in the dose matrix, 72 h); higher = more inhibition; extreme values may be limits of the assay
Write the number on its own, no unit after it.

Field: example entries. Status: answers known.
C[C@@H]1COCCN1c1cc(C2([S@](C)(=N)=O)CC2)nc(-c2ccnc3[nH]ccc23)n1 [AZD6738] + Nc1ccn([C@@H]2O[C@H](CO)[C@@H](O)C2(F)F)c(=O)n1 [Gemcitabine] (first compound max 10 µM, 7x7, partner max 0.3 µM) :: 0.772
C=CCn1c(=O)c2cnc(Nc3ccc(N4CCN(C)CC4)cc3)nc2n1-c1cccc(C(C)(C)O)n1 [AZD1775] + C[C@@H]1COCCN1C2=NC(=NC(=C2)C3(CC3)[S@](=N)(=O)C)C4=C5C=CNC5=NC=C4 [AZD6738] (first compound max 1 µM, partner max 10 µM) :: 0.921
COc1cccc2c1C(=O)c1c(O)c3c(c(O)c1C2=O)C[C@@](O)(C(=O)CO)C[C@@H]3O[C@H]1C[C@H](N)[C@H](O)[C@H](C)O1 [Doxorubicin] + Cc1cc2ncnn2cc1Nc1ncc2c(n1)n(C1CCOCC1)c(=O)n2C [AZD7648] (first compound max 1 µM, 7x7, partner max 10 µM) :: 0.856

# Cc1c2c(nn1C)CSCc1cc(n(C)n1)CSc1cc(c3ccccc3c1)OCCCc1c(C(=O)O)n(C)c3c-2c(Cl)ccc13 [AZD5991] + CC(=O)O[C@H]1C(=O)[C@@]2(C)[C@H]([C@H](OC(=O)c3ccccc3)[C@]3(O)C[C@H](OC(=O)[C@H](O)[C@@H](NC(=O)c4ccccc4)c4ccccc4)C(C)=C1C3(C)C)[C@]1(OC(C)=O)CO[C@@H]1C[C@@H]2O [Paclitaxel] (first compound max 1 µM, 7x7, partner max 3 µM) with Hs-578-T (Breast Carcinoma): combination Emax is 0.988

Assay Hs-578-T (Breast Carcinoma), sample Cc1nc(Nc2ncc(C(=O)Nc3c(C)cccc3Cl)s2)cc(N2CCN(CCO)CC2)n1 [Dasatinib] + CC(=O)Nc1cccc(-n2c(=O)n(C3CC3)c(=O)c3c(Nc4ccc(I)cc4F)n(C)c(=O)c(C)c32)c1 [Trametinib] (first compound max 2 µM, 7x7, partner max 1 µM) , combination Emax read: 0.922

For CCc1c2c(nc3ccc(O)cc13)-c1cc3c(c(=O)n1C2)COC(=O)[C@]3(O)CC [SN-38] + CN(C)CCCOc1ccc(-c2ccc3ncc4c(c3c2)n(C2CCOCC2)c(=O)n4C)cn1 [AZD0156] (first compound max 0.3 µM, 7x7, partner max 1 µM) on Hs-578-T (Breast Carcinoma), measured combination Emax was 0.635

---

tested on: HO-1-N-1 (Oral Cavity Carcinoma); experiment: combination Emax (second highest fraction inhibited in the dose matrix, 72 h); higher = more inhibition; extreme values may be limits of the assay
A collection of compounds and their measured combination Emax
Just the number, please, no unit attached.

// known answers, use as guide
CC1(C)CCC(CN2CCN(c3ccc(C(=O)NS(=O)(=O)c4ccc(NCC5CCOCC5)c([N+](=O)[O-])c4)c(Oc4cnc5[nH]ccc5c4)c3)CC2)=C(c2ccc(Cl)cc2)C1 [Venetoclax] + Cn1cnc2c(F)c(Nc3ccc(Br)cc3Cl)c(C(=O)NOCCO)cc21 [Selumetinib] (first compound max 1 µM, 7x7, partner max 3 µM) :: 0.205
COc1nnc2ccc(N3CCC(c4ccc(OCCN5CCN(C)C(=O)[C@H]5C)cc4)CC3)nn12 [AZD5153] + Cn1cnc2c(F)c(Nc3ccc(Br)cc3Cl)c(C(=O)NOCCO)cc21 [Selumetinib] (first compound max 1 µM, 7x7, partner max 10 µM) :: 0.773

Turning to the following compound.
// assay HO-1-N-1 (Oral Cavity Carcinoma), entry Cc1cc2ncnn2cc1Nc1ncc2c(n1)n(C1CCOCC1)c(=O)n2C [AZD7648] + C=CCn1c(=O)c2cnc(Nc3ccc(N4CCN(C)CC4)cc3)nc2n1-c1cccc(C(C)(C)O)n1 [AZD1775] (first compound max 10 µM, partner max 1 µM) , combination Emax value = 0.532

---

The entries below are paired with their reported combination Emax.
tested on: NOS-1 (Osteosarcoma); assay: combination Emax (second highest fraction inhibited in the dose matrix, 72 h); higher = more inhibition; extreme values may be limits of the assay

Guide cases for combination Emax, answers given:
COc1nnc2ccc(N3CCC(c4ccc(OCCN5CCN(C)C(=O)[C@H]5C)cc4)CC3)nn12 [AZD5153] + C[C@@H]1COCCN1C2=NC(=NC(=C2)C3(CC3)[S@](=N)(=O)C)C4=C5C=CNC5=NC=C4 [AZD6738] (first compound max 1 µM, 7x7, partner max 10 µM) :: 0.887
C=CCn1c(=O)c2cnc(Nc3ccc(N4CCN(C)CC4)cc3)nc2n1-c1cccc(C(C)(C)O)n1 [AZD1775] + C[C@@H]1COCCN1C2=NC(=NC(=C2)C3(CC3)[S@](=N)(=O)C)C4=C5C=CNC5=NC=C4 [AZD6738] (first compound max 1 µM, partner max 10 µM) :: 0.622
CC1(C)CCC(CN2CCN(c3ccc(C(=O)NS(=O)(=O)c4ccc(NCC5CCOCC5)c([N+](=O)[O-])c4)c(Oc4cnc5[nH]ccc5c4)c3)CC2)=C(c2ccc(Cl)cc2)C1 [Venetoclax] + CCN(CCO)CCCOc1ccc2c(Nc3cc(CC(=O)Nc4cccc(F)c4)[nH]n3)ncnc2c1 [AZD2811] (first compound max 1 µM, 7x7, partner max 1 µM) :: 0.255

The compound NC1(C(=O)N[C@@H](CCO)c2ccc(Cl)cc2)CCN(c2ncnc3[nH]ccc23)CC1 [Capivasertib] + CC(C)n1c(=O)n(C)c2cnc3cc(F)c(-c4ccc(OCCCN5CCCCC5)nc4)cc3c21 [AZD1390] (first compound max 10 µM, 7x7, partner max 0.3 µM) showed combination Emax equal to 0.322

Kindly note the recorded combination Emax for COc1nnc2ccc(N3CCC(c4ccc(OCCN5CCN(C)C(=O)[C@H]5C)cc4)CC3)nn12 [AZD5153] + C=CCn1c(=O)c2cnc(Nc3ccc(N4CCN(C)CC4)cc3)nc2n1-c1cccc(C(C)(C)O)n1 [AZD1775] (first compound max 1 µM, partner max 1 µM) , which is 0.867

Quick note, combination Emax for C[C@@H](c1ccc2nccn2c1)n1nnc2ncc(-c3cnn(C)c3)nc21 [Savolitinib] + CN(CC[C@H](CSC1=CC=CC=C1)NC2=C(C=C(C=C2)S(=O)(=O)NC(=O)C3=CC=C(C=C3)N4CCC(CC4)[C@H](C5=CC=CC=C5C6=CC=C(C=C6)Cl)O)S(=O)(=O)C(F)(F)F)CCO [AZD4320] (first compound max 1 µM, 7x7, partner max 1 µM) landed at 0.506

Recorded result, CC(=O)c1c(C)c2cnc(Nc3ccc(N4CCNCC4)cn3)nc2n(C2CCCC2)c1=O [Palbociclib] + Cc1c2c(nn1C)CSCc1cc(n(C)n1)CSc1cc(c3ccccc3c1)OCCCc1c(C(=O)O)n(C)c3c-2c(Cl)ccc13 [AZD5991] (first compound max 10 µM, 7x7, partner max 1 µM) , combination Emax: 0.925

---

system: NB10 (Neuroblastoma); experiment: combination Emax (second highest fraction inhibited in the dose matrix, 72 h); higher = more inhibition; extreme values may be limits of the assay
measurement-kind: combination Emax

CC(=O)c1c(C)c2cnc(Nc3ccc(N4CCNCC4)cn3)nc2n(C2CCCC2)c1=O [Palbociclib] + Cc1c2c(nn1C)CSCc1cc(n(C)n1)CSc1cc(c3ccccc3c1)OCCCc1c(C(=O)O)n(C)c3c-2c(Cl)ccc13 [AZD5991] (first compound max 10 µM, 7x7, partner max 1 µM) :: 0.369

Continue with the next compound.
Value of measured combination Emax for the entry C[C@@H]1COCCN1c1cc(C2([S@](C)(=N)=O)CC2)nc(-c2ccnc3[nH]ccc23)n1 [AZD6738] + O=C(c1cc(Cc2n[nH]c(=O)c3ccccc23)ccc1F)N1CCN(C(=O)C2CC2)CC1 [Olaparib] (first compound max 10 µM, 7x7, partner max 10 µM) : 0.811

---

system: KELLY (Neuroblastoma); test: combination Emax (second highest fraction inhibited in the dose matrix, 72 h); higher = more inhibition; extreme values may be limits of the assay
measurement-kind: combination Emax
# print the numeric value only

Worked cases, answers included:
CCc1c2c(nc3ccc(O)cc13)-c1cc3c(c(=O)n1C2)COC(=O)[C@]3(O)CC [SN-38] + CN(C)CCCOc1ccc(-c2ccc3ncc4c(c3c2)n(C2CCOCC2)c(=O)n4C)cn1 [AZD0156] (first compound max 0.3 µM, 7x7, partner max 1 µM) :: 0.869
COc1cc2ncnc(Nc3ccc(F)c(Cl)c3)c2cc1OCCCN1CCOCC1 [Gefitinib] + CC(C)n1c(=O)n(C)c2cnc3cc(F)c(-c4ccc(OCCCN5CCCCC5)nc4)cc3c21 [AZD1390] (first compound max 10 µM, 7x7, partner max 0.3 µM) :: 0.189
CCN(CCO)CCCOc1ccc2c(Nc3cc(CC(=O)Nc4cccc(F)c4)[nH]n3)ncnc2c1 [AZD2811] + C=CCn1c(=O)c2cnc(Nc3ccc(N4CCN(C)CC4)cc3)nc2n1-c1cccc(C(C)(C)O)n1 [AZD1775] (first compound max 1 µM, partner max 1 µM) :: 1
C[C@@H](c1ccc2nccn2c1)n1nnc2ncc(-c3cnn(C)c3)nc21 [Savolitinib] + Cc1c2c(nn1C)CSCc1cc(n(C)n1)CSc1cc(c3ccccc3c1)OCCCc1c(C(=O)O)n(C)c3c-2c(Cl)ccc13 [AZD5991] (first compound max 1 µM, 7x7, partner max 1 µM) :: 0.805
CN(CCO)CC[C@H](CSc1ccccc1)Nc1ccc(S(=O)(=O)NC(=O)c2ccc(N3CCC([C@@H](O)c4ccccc4-c4ccc(Cl)cc4)CC3)cc2)cc1S(=O)(=O)C(F)(F)F [AZD4320] + C1CN(CCC1(C(=O)N[C@@H](CCO)C2=CC=C(C=C2)Cl)N)C3=NC=NC4=C3C=CN4 [Capivasertib] (first compound max 1 µM, 7x7, partner max 3 µM) :: 0.229
CN(CCO)CC[C@H](CSc1ccccc1)Nc1ccc(S(=O)(=O)NC(=O)c2ccc(N3CCC([C@@H](O)c4ccccc4-c4ccc(Cl)cc4)CC3)cc2)cc1S(=O)(=O)C(F)(F)F [AZD4320] + CCN(CCO)CCCOc1ccc2c(Nc3cc(CC(=O)Nc4cccc(F)c4)[nH]n3)ncnc2c1 [AZD2811] (first compound max 1 µM, 7x7, partner max 1 µM) :: 0.892

KELLY (Neuroblastoma) combination Emax of Cc1c2c(nn1C)CSCc1cc(n(C)n1)CSc1cc(c3ccccc3c1)OCCCc1c(C(=O)O)n(C)c3c-2c(Cl)ccc13 [AZD5991] + C=CCn1c(=O)c2cnc(Nc3ccc(N4CCN(C)CC4)cc3)nc2n1-c1cccc(C(C)(C)O)n1 [AZD1775] (first compound max 1 µM, partner max 1 µM) is 1
